Where these numbers come from: patent US20240269276A1

# assay_target: T1, cynomolgus monkey PD-L1 on CHO-K1 cells overexpressing cynomolgus monkey PD-L1 (cynomolgus monkey, UniProt G7PSE7 19-290)
# T1 construct: also called CHO-K1/cynoPD-L1; GenScript M00573
# T1 sequence (G7PSE7 entry or part of it limits assumed): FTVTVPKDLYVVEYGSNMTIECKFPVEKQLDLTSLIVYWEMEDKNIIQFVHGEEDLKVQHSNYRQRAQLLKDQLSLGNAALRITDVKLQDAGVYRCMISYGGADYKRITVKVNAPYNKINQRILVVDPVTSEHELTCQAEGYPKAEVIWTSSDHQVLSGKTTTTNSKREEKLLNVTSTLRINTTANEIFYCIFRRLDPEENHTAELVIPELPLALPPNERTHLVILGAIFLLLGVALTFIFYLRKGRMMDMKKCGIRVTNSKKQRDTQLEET
# test_summary: flow cytometry on CHO-K1 cells overexpressing cynomolgus monkey PD-L1 (CHO-K1/cynoPD-L1)
// reported pEC50 per item
Entry type: numeric. Quantity: pEC50, the -log10 of concentration in molar units.

Examples from the recorded data:
[[record]]
binder = "PR005263 (antibody, human IgG1, V domains shown, The HC entry is used) VH: QVQLVESGGGVVQPGMSLRLSCAASGFTFSSYGMYWVRQAPGKGQEWVASIRYTGTEKHYADSVKGRFTISRDNSKNTLYLEMNSLRVEDTAVYYCAKNRAIFGVVPDASDIRGQGTMVTVSS"
recorded_number = 8.92

[[record]]
binder = "PR006248 (antibody, human IgG1, V domains shown, The HC entry is used) VH: QVQLVESGGGVVQPGMSLRLSCAASGFDFSSYGMYWVRQAPGKGQEWVASIRYTGTEKHYADSVKGRFTISRDNSKNTLYLEMNSLRVEDTAVYYCAKNRALFGVIPDDSDIRGQGTMVTVSS"
recorded_number = 9.14

[[record]]
binder = "PR002082 (antibody, human IgG1, V domains shown, HCAb; also called PTM variant of PR000960 (N28T, N31S)) VH: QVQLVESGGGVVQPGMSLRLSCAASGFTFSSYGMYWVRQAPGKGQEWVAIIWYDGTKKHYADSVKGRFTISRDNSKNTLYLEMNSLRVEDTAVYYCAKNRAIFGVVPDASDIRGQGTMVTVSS"
recorded_number = 8.82

[[record]]
binder = "PR006246 (antibody, human IgG1, V domains shown, The HC entry is used) VH: QVQLVESGGGVVQPGMSLRLSCAASGFDFSSYGMYWVRQAPGKGQEWVASIRYTGTEKHYADSVKGRFTISRDNSKNTLYLEMNSLRVEDTAVYYCAKNRAIFGVIPDDSDIRGQGTMVTVSS"
recorded_number = 9.13


Here is another binder to look at.
IN: If you can, please state the reported pEC50 value of PR005875 (antibody, human IgG1, V domains shown, The HC entry is used) VH: QVQLVESGGGVVQPGMSLRLSCAASGFTFSSYGMYWVRQAPGKGQEWVASIRYTGTEKHYADSVKGRFTISRDNSKNTLYLEMNSLRVEDTAVYYCAKNRALFGVIPDASDIRGQGTMVTVSS .
OUT: 9.11
